# Subject Of Test: human recombinant heparanase (h-hpa) (Homo sapiens)
# Sequence (Q9Y251 158-543 limits assumed): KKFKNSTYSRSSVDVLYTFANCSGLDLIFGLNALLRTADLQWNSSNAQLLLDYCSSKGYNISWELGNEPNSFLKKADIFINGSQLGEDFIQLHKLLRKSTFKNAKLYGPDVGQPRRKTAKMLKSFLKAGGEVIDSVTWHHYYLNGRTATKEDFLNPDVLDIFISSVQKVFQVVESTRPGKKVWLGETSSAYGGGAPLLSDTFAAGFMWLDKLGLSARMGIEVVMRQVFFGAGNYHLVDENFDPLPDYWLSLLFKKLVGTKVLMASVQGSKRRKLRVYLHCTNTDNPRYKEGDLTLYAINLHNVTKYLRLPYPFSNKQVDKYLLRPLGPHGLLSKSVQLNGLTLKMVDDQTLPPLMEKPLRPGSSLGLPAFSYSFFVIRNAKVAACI
# Sequence (Q9Y251 36-109 limits assumed): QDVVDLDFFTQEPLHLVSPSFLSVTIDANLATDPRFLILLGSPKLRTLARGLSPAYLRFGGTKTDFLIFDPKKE
# Measurement Notes: In vitro dimethylmethylene blue (DMB) assay for heparanase activity
Exercise: for every item that follows, state its recorded pIC50.
Formally, pIC50 is defined as -log10 of the concentration c, with c in mol/L.

Task: For the compound CCCCCCCCCCCC1OC1CCCCC(=O)On1nnc2ccccc2c1=O (stereo not shown) , what pIC50 is on record?
Output: 4.80

Task: For the compound CCCCCCCCCCCCCCCCCC1=NN(c2ccc(Oc3ccccc3)c(S(=O)(=O)O)c2)C(=O)C1/N=N/c1ccc(O)c(C(=O)O)c1 (stereo not shown) , what pIC50 is on record?
Output: 6.51

Task: For the compound CCCCCCCCCCCCCCCCCC(=O)NC1=NN(c2ccc(Oc3ccccc3)c(S(=O)(=O)O)c2)C(=O)C1/N=N/c1ccc(O)cc1Cl (stereo not shown) , what pIC50 is on record?
Output: 6.74

Task: For the compound CCCCCCCCCCCCCCCCCCNc1ccc(C(=O)O)cc1NC(=O)c1cc(/N=N/c2ccc(NS(=O)(=O)c3ccc(C)cc3)cc2C)c2ccccc2c1O , what pIC50 is on record?
Output: 4.77

Task: For the compound CCCCCCCCCCCCCCCC1=CN(c2ccc(S(=O)(=O)O)cc2)C(=O)C1 , what pIC50 is on record?
Output: 5.80

Task: For the compound CCCCCCCCCCCCCCCCCCNC(=O)C1CC(=O)N(c2ccc(Oc3ccc(C(N)=O)cc3)c(S(=O)(=O)O)c2)C1 (stereo not shown) , what pIC50 is on record?
Output: 6.52

Task: For the compound CCCCCCCCCCCCCCCCCCN(C)c1ccc(S(=O)(=O)O)cc1NC(=O)c1cc(S(=O)(=O)O)c2ccccc2c1O , what pIC50 is on record?
Output: 6.31
